Settings: in n-octanol, 318.15 K
property label: solubility (mole fraction)
Give bare numbers.

Please give the measured solubility (mole fraction) for this compound: CC(C)N1C(=O)N(c2ccccc2)CSC1=NC(C)(C)C
0.0789

----------
Conditions: in acetone, 273.15 K
property label: solubility (mole fraction)
Answers are plain numbers.

Please give the measured solubility (mole fraction) for this compound: CC(C)N1C(=O)N(c2ccccc2)CSC1=NC(C)(C)C
0.03

----------
Details: in DMF, 303.15 K
property label: solubility (mole fraction)

Please give the measured solubility (mole fraction) for this molecule: CC(C)N1C(=O)N(c2ccccc2)CSC1=NC(C)(C)C
0.104

----------
Details: in methanol, 318.15 K
property label: solubility (mole fraction)

Please give the measured solubility (mole fraction) for this compound: CC(C)N1C(=O)N(c2ccccc2)CSC1=NC(C)(C)C
0.0272

Each recorded value in this set is attributed to BigSolDB 2.1.
